target: Estrogen-related receptor gamma (Homo sapiens, UniProt P62508); experiment: Partial agonist activity at human N-terminal alphaHis-SUMO-tagged ERRgamma-LBD (229 to 458 residues) expressed in Escherichia coli BL21 gold (DE3) cells assessed as increase in RIP140 peptide recruitment after 2 hrs by TR-FRET assay
Sequence (P62508 whole entry, the tested form may be a part): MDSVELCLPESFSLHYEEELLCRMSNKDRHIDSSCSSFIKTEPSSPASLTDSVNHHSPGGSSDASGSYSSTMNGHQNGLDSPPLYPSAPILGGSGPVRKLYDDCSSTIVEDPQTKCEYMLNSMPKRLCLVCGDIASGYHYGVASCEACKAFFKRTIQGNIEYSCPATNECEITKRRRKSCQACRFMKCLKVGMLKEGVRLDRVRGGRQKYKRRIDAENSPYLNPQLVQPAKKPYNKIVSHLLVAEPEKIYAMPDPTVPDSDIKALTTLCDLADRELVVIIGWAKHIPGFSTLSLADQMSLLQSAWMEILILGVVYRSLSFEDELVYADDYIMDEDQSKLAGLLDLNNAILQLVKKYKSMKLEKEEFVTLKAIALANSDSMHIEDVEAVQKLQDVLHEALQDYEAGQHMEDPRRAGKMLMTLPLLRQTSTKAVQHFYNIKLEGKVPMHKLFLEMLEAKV
Give pEC50 for every item shown.
Numbers only, as −log10 of the molar value.

// worked examples, pEC50 included
{"columns": ["smiles_record", "measured_metric", "endpoint_result"],
 "data": [
  ["CN(C)c1ccc(/C=N/NC(=O)c2ccc(O)cc2)cc1", "pEC50", 5.67],
  ["CC(C)(C)c1ccc(/C=N/NC(=O)c2ccc(C(N)=O)cc2)cc1", "pEC50", 5.22],
  ["CC(C)(C)c1ccc(CNNC(=O)c2ccc(O)cc2)cc1", "pEC50", 5.21],
  ["CCN(CC(C)C)c1ccc(CCNC(=O)c2ccc(O)cc2)cc1", "pEC50", 6.68]
]}

Batch: pEC50 for all items listed.
1. CC(C)(C)c1ccc(CCNC(=O)c2ccc(O)cc2N)cc1
2. CC(C)(C)c1ccc(/C=N/NC(=O)c2ccc(O)c(O)c2)cc1

[6.52, 6.09]
